- System: MARK3
- MEASUREMENT CONDITIONS: concentration: 1 μM, replicates: in singlicate; n = 1;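 also: KINOMEscan kinase panel screen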
Response key: Satisfied means %Inh >= 2%; Not satisfied means %Inh < 2%.

Prompt: Hello, I need to know if COc1cc2c(cc1OC[C@@H](O)CO)ncc1c3ccc(C#N)cc3[nH]c21 has measured %Inh not below 2%. Thanks!
Response: Not satisfied

Prompt: Please give the result for NS(=O)(=O)c1cccc(-c2ccc3ncc(N4CCOCC4)nc3c2)c1 too.
Response: Not satisfied

Prompt: Please give the result for O=c1cc(N2CCOCC2)nc2n(Cc3cccc4ccccc34)ccn12 too.
Response: Satisfied

Prompt: Please give the result for COc1ccc(Nc2nccc(N3CCC(NC(=O)Nc4cc(C)ccc4C)C3)n2)cc1 (stereo not drawn) too.
Response: Not satisfied

Prompt: Please give the result for Nc1nccc(-c2c(-c3ccc(F)cc3)ncn2C2CCN(CC(F)(F)F)CC2)n1 too.
Response: Not satisfied

Prompt: Please give the result for COCCNC(=O)c1ccc(-c2cc(C(=O)NC3CC3)cc(F)c2C)cc1 too.
Response: Satisfied

Prompt: Please give the result for C[C@@H](Oc1cc(-n2cnc3ccc(NC(=O)NC(C)(C)C)cc32)sc1C(N)=O)c1ccccc1Cl too.
Response: Not satisfied

Prompt: Please give the result for COc1ccc(COc2cc(-n3cnc4ccccc43)sc2C(N)=O)cc1 too.
Response: Satisfied

---

- Tested on: YSK4
- Construct: gene MAP3K19
- MEASUREMENT CONDITIONS: concentration: 1 μM, replicates: in singlicate; n = 1
VALUE TYPE: %Inh (%)
Report the value in % with no unit label.

Prompt: Recorded %Inh of COc1cc2c(cc1OC[C@@H](O)CO)ncc1c3ccc(C#N)cc3[nH]c21 , please.
Response: 90

Prompt: Please give the result for O=c1cc(N2CCOCC2)nc2n(Cc3cccc(Cl)c3Cl)c(C3CC3)nn12 [GSK2358994] too.
Response: 0

Prompt: Please give the result for [2H]C([2H])(c1cccc(C(F)(F)F)c1C)n1ccn2c(=O)nc(N3CCOCC3)cc12 [GSK2336394] too.
Response: 26

Prompt: Please give the result for N#Cc1ccc(-c2cc(-c3c[nH]nc3-c3ccccn3)ccn2)cc1 [GW693028] too.
Response: 33

Prompt: Please give the result for NS(=O)(=O)c1cccc(-c2ccc3ncc(N4CCOCC4)nc3c2)c1 [GSK1535721] too.
Response: 89

Prompt: Please give the result for Cc1nnc(-c2ccc(C)c(-c3ccc(C(=O)Nc4ccc(NS(C)(=O)=O)cc4)cc3)c2)o1 [GW702865] too.
Response: 0

Prompt: Please give the result for CC(C)(C)n1cnc2c(N)ncnc21 [SKF-97359] too.
Response: 0

Prompt: Please give the result for CN(C1=C(c2ccccc2)C(=O)NC1=O)c1ccccc1 [SB-334860] too.
Response: 9

Prompt: Please give the result for NS(=O)(=O)c1cccc(-c2ccc3nccc(-c4cccc(S(N)(=O)=O)c4)c3c2)c1 [GW867253] too.
Response: 26

---

- Test system: WEE2
- MEASUREMENT CONDITIONS: concentration: 1 μM, replicates: in singlicate; n = 1
VALUE TYPE: %Inh
Give your result as the value with the unit written after it.

Prompt: Recorded %Inh of Cc1c(Cn2c(C)nn3c(=O)cc(N4CCOC(C)C4)nc23)cccc1C(F)(F)F (stereo not drawn) [GSK2344444] , please.
Response: 0%

Prompt: Please give the result for [2H]C([2H])(c1cccc(C(F)(F)F)c1C)n1ccn2c(=O)nc(N3CCOCC3)cc12 [GSK2336394] too.
Response: 10%

Prompt: Please give the result for COc1ccc(S(=O)(=O)NC2CCN(c3cc(C)nc(Nc4cccc(C#N)c4)n3)CC2)cc1.O=C(O)C(F)(F)F [GSK1653539] too.
Response: 6%

Prompt: Please give the result for Cc1ccc(NC(=O)c2ccnc(N3CCN(C)CC3)c2)cc1-c1ccc(C(=O)NCC2CC2)cc1 [GW775604] too.
Response: 0%

Prompt: Please give the result for O=C(NCCCN1CCOCC1)c1cccc(Nc2nccc(Nc3ccc(Oc4ccccc4)cc3)n2)c1 [GW663929] too.
Response: 0%

Prompt: Please give the result for O=C(Nc1n[nH]c2cc(-c3cccc(F)c3)ccc12)C1CC1 [SB-735464] too.
Response: 4%

Prompt: Please give the result for Cc1cn2c(=O)cc(N3CCOCC3)nc2n1Cc1cccc(Cl)c1Cl [GSK2334006] too.
Response: 16%

Prompt: Please give the result for CNc1ncnc2[nH]ncc12 [SKF-18355] too.
Response: 0%

Prompt: Please give the result for O=c1cc(N2CCOCC2)nc2n(Cc3cccc(C(F)(F)F)c3)ccn12 [GSK2297543] too.
Response: 10%

Prompt: Please give the result for COCCNC(=O)c1ccc(-c2cc(C(=O)NC3CC3)cc(F)c2C)cc1 [GW868318] too.
Response: 5%

Prompt: Please give the result for O=c1cc(N2CCOCC2)nc2n(Cc3cccc(F)c3)ccn12 [GSK2297430] too.
Response: 9%

Prompt: Please give the result for Cc1c2ccc(N(C)c3ccnc(Nc4cccc(S(N)(=O)=O)c4)n3)cc2nn1Cc1ccccc1.Cl.Cl [GW787226] too.
Response: 6%

Prompt: Please give the result for Cl.Nc1ncnc2occ(-c3ccc(NC(=O)Nc4cc(C(F)(F)F)ccc4F)cc3)c12 [SB-707548] too.
Response: 6%

Prompt: Please give the result for NS(=O)(=O)CCc1cccc(Nc2nccc(-c3c(-c4cccc(NC(=O)c5c(F)cccc5F)c4)nn4ccccc34)n2)c1 [GSK336735] too.
Response: 0%

Prompt: Please give the result for COc1ccc(Nc2nccc(N3CCC(NC(=O)Nc4cccc(C(C)=O)c4)C3)n2)cc1 (stereo not drawn) [GSK1379731] too.
Response: 0%

Prompt: Please give the result for Cc1cccc(Cn2ccn3c(=O)cc(N4CCOCC4)nc23)c1 [GSK2297542] too.
Response: 22%

Prompt: Please give the result for Nc1nccc(-c2c(-c3ccc(F)cc3)ncn2C2CCN(CC(F)(F)F)CC2)n1 [SB-236560] too.
Response: 0%

Prompt: Please give the result for CCc1ccnc(/C=C/c2n[nH]c3cc(Sc4ccccc4C(=O)NC)ccc23)c1 too.
Response: 0%

Prompt: Please give the result for c1ccc(-c2cc(-c3c[nH]nc3-c3ccccn3)ccn2)cc1 [GW576604] too.
Response: 0%

Prompt: Please give the result for c1ccc(-c2n[nH]cc2-c2ccnc3ccccc23)nc1 [GW271431] too.
Response: 2%

Prompt: Please give the result for CCCCCc1nc2c(N)ncnc2n1CCCCC [SKF-97255] too.
Response: 3%

Prompt: Please give the result for CCc1nc(-c2cccc(C)c2)c(-c2ccnc(NCc3ccccc3)c2)s1 too.
Response: 25%

Prompt: Please give the result for CC(C)(C)n1cnc2c(N)ncnc21 [SKF-97359] too.
Response: 12%

Prompt: Please give the result for Cc1nnc(-c2ccc(C)c(-c3ccc(C(=O)Nc4ccc(NS(C)(=O)=O)cc4)cc3)c2)o1 [GW702865] too.
Response: 0%

Prompt: Please give the result for Nc1nc(-c2ccc3c(N)n[nH]c3c2)cc(N2CCCC2)n1 [GSK2227430] too.
Response: 0%

Prompt: Please give the result for Fc1ccc(-c2ncn(CCCN3CCOCC3)c2-c2cccnc2)cc1 [SB-211743] too.
Response: 0%

Prompt: Please give the result for COc1ccc(Nc2nccc(N3CCC(NC(=O)Nc4cc(C)ccc4C)C3)n2)cc1 (stereo not drawn) [GSK1379741] too.
Response: 0%

Prompt: Please give the result for O=C1Cc2cc(Nc3nc(NCc4cccc(S(=O)(=O)C(F)(F)F)c4)ncc3C(F)(F)F)ccc2N1 too.
Response: 0%

Prompt: Please give the result for O=C(NCCNc1ccnc(Nc2ccc(F)cc2)n1)Nc1ccccc1F [GSK1379880] too.
Response: 3%

Prompt: Please give the result for CSc1ccc(-c2cc3ncnc(SCC(=O)O)c3s2)cc1 too.
Response: 15%

Prompt: Please give the result for COc1ccc(COc2cc(-n3cnc4ccccc43)sc2C(N)=O)cc1 [GSK1024304] too.
Response: 2%

Prompt: Please give the result for O=c1cc(N2CCOCC2)nc2n(Cc3cccc4ccccc34)ccn12 [GSK2333389] too.
Response: 12%

Prompt: Please give the result for O=C(NCCNc1ccnc(Nc2ccc(F)cc2)n1)c1cc2ccccc2s1 [GSK1379874] too.
Response: 5%

Prompt: Please give the result for CN(C(=O)c1ccc(-c2cc(-c3c[nH]nc3-c3ccccn3)ccn2)cc1)C1CCOCC1 [GW810083] too.
Response: 22%

Prompt: Please give the result for N#Cc1ccc(-c2cc(-c3c[nH]nc3-c3ccccn3)ccn2)cc1 [GW693028] too.
Response: 0%

Prompt: Please give the result for COc1cc2c(cc1OCCN1CCN(C)CC1)ncc1c3ccc(C#N)cc3[nH]c21 too.
Response: 3%
